system: HOP-92; conditions: HOP-92, Non-Small-Cell Lung
ENDPOINT_LABEL: GI50 (µM)
Numbers only, in µM.

These recorded examples may help you get a feel for the data.
MOLECULE	GI50, µM
C=C1CCC2C3(C)COC(c4cn(-c5ccccc5)nc4-c4ccc(Cl)cc4)OC3CCC2(C)C1CC=C1C(=O)OCC1O (stereo not drawn) [1g]	1.5
C=C1CCC2C3(C)COC(c4cn(-c5ccccc5)nc4-c4ccc(C)cc4)OC3CCC2(C)C1CC=C1C(=O)OCC1O (stereo not drawn) [1i]	1.43

Now look at this one.
Inquiry: Send back HOP-92 GI50 of C=C1CCC2C3(C)COC(c4cn(-c5ccccc5)nc4-c4ccc(OC)cc4)OC3CCC2(C)C1CC=C1C(=O)OCC1O (stereo not drawn) [1j] only.
Reply text: 1.47

---

Consider the following molecules; for each one, report its log10(CC50).
test system: MCF7; settings: read-out: 50% lethal concentration (LC50); MCF7, Breast
// do not treat as linear: log10 of CC50, unit µM

These recorded examples may help you get a feel for the data.
MOLECULE	MEASURED_TARGET	log10(CC50)
C=C1CCC2C3(C)COC(c4cn(-c5ccccc5)nc4-c4ccc(C)cc4)OC3CCC2(C)C1CC=C1C(=O)OCC1O (stereo not shown)	MCF7	0.73
C=C1CCC2C3(C)COC(c4cn(-c5ccccc5)nc4-c4ccc(Br)cc4)OC3CCC2(C)C1CC=C1C(=O)OCC1O (stereo not shown)	MCF7	1.86
C=C1CCC2C3(C)COC(c4cn(-c5ccccc5)nc4-c4ccc(F)cc4)OC3CCC2(C)C1CC=C1C(=O)OCC1O (stereo not shown)	MCF7	1.80
C=C1CCC2C3(C)COC(c4cn(-c5ccccc5)nc4-c4ccc(Cl)cc4)OC3CCC2(C)C1CC=C1C(=O)OCC1O (stereo not shown)	MCF7	1.63

Now look at this one.
Inquiry: Please give measured log10(CC50) of the following entry: C=C1CCC2C3(C)COC(c4cn(-c5ccccc5)nc4-c4cccc(F)c4)OC3CCC2(C)C1CC=C1C(=O)OCC1O (stereo not shown)
Reply text: 1.70

---

Consider the following compounds; for each one, report its CC50.
test system: T-47D; conditions: read-out: 50% lethal concentration (LC50), Breast

These recorded examples may help you get a feel for the data.
COMPOUND	ENDPOINT_LABEL	EXPERIMENTAL_VALUE
C=C1CCC2C3(C)COC(c4cn(-c5ccccc5)nc4-c4cccc(Br)c4)OC3CCC2(C)C1CC=C1C(=O)OCC1O (stereo not drawn)	CC50	> 100 µM
C=C1CCC2C3(C)COC(c4cn(-c5ccccc5)nc4-c4cccc(F)c4)OC3CCC2(C)C1CC=C1C(=O)OCC1O (stereo not drawn)	CC50	> 100 µM

Go through the list and state CC50 for each entry.
1. C=C1CCC2C3(C)COC(c4cn(-c5ccccc5)nc4-c4cccc([N+](=O)[O-])c4)OC3CCC2(C)C1CC=C1C(=O)OCC1O (stereo not drawn)
2. C=C1CCC2C3(C)COC(c4cn(-c5ccccc5)nc4-c4ccccc4)OC3CCC2(C)C1CC=C1C(=O)OCC1O (stereo not drawn)
3. C=C1CCC2C3(C)COC(c4cn(-c5ccccc5)nc4-c4ccc(F)cc4)OC3CCC2(C)C1CC=C1C(=O)OCC1O (stereo not drawn)
4. C=C1CCC2C3(C)COC(c4cn(-c5ccccc5)nc4-c4ccc(Cl)cc4)OC3CCC2(C)C1CC=C1C(=O)OCC1O (stereo not drawn)

Reply text:
1: > 100 µM; 2: 8.47 µM; 3: 7.44 µM; 4: > 100 µM
